# measurementDescription: soluble on expression in E. coli; label from the status in PepcDB or PDB records
readoutKind: soluble on expression in E. coli

MGSDKIHHHHHHMIILFGNQKGGCGKTTNCIQFANYLVEKGKEVLVLDLDFQRSLSDRRKEDIATYDNEPKYEVIQTDISNVAKIISDFTKVEQGNLLIDLPGKIDDDALGTILKAADIIICPFKYDKFTMDSTGFFIQVLQYLNVKAKIFFLPNNMRAAVRYETKEQVVDILKQVGFVTDEIPASVAMERINTLTISNECIDKVKNAYDYIIQEGAIK :: not soluble
MAHHHHHHMNKVVIISIFFFFFFQDHNNKSINSYNKINSSSTYTHSRILKQLEFITLEEKTVNALQEMLDSVEEDPSEKKCNRLLAKLKIRNEYHKHRKPHNYYARKNKKKEQKRQHLKKNKGKLNRLQQLEEKLFTHADLLRSAIFERTSRVPDGIFYT :: not soluble
MGSDKIHHHHHHMAESKTKRLLYFMSELEKGNQINKEEYIAKFNISDRTMKEDVSELKTNLKELRPNMQIKFSRKHACYFASYEQGYGNLKYNQAVILSKILLESRALRKEEVAEIINIFVERAVDDKERTRIKKLTQFELNSYQELKFYQKSNKSILPTISAIFDAIVDQRPLAFSYTKPSSKVEEYIVLPISVIFDNHYFYCISYKLDNCFQSRYELQELRYFRVDRFKTIHKSISNSAFALTEEEQERLITDEQVRYQTFSMLSDQKWVRIQFRYTGQFRDVLEADIPKLKMINELEEGIIYEIETLSLLGFQKYIQRFDGDFVFLNIKSIKK :: not soluble

====

# measurementDescription: soluble on expression in E. coli; label from the status in PepcDB or PDB records
readoutKind: soluble on expression in E. coli

ENVLTQSPAIMSPSPGEKVTMTCRARSSVSSSYLHWYQQKSGASPKLWIYSTSNLASGVPARFSGSGSGTSYSLTISSVEAEDTATYYCQQYSGNPWTFGGGTKLEIKRADAAPTVSIFPPSSEQLTSGGASVVCFLNNFYPKDINVKWKIDGSERQNGVLNSWTDQDSKDSTYSMSSTLTLTKDEYERHNSYTCEATHKTSTSPIVKSFNRNEC :: soluble
MSLAIKLIAIDMDGTLLLPDHTISPAVKNAIAAARARGVNVVLTTGRPYAGVHNYLKELHMEQPGDYCITYNGALVQKAADGSTVAQTALSYDDYRFLEKLSREVGSHFHALDRTTLYTANRDISYYTVHESFVATIPLVFCEAEKMDPNTQFLKVMMIDEPAILDQAIARIPQEVKEKYTVLKSAPYFLEILDKRVNKGTGVKSLADVLGIKPEEIMAIGDQENDIAMIEYAGVGVAVDNAIPSVKEVANFVTKSNLEDGVAFAIEKYVLNEGGSHHHHHH :: soluble

====

# measurementDescription: soluble on expression in E. coli; label from the status in PepcDB or PDB records
readoutKind: soluble on expression in E. coli

Below, 6 sequences whose answers are already recorded.
MGSDKIHHHHHHMIKALLTVSTILVSSHALATDKPADKPWHNEKPTLSTINAPTKVMPMVCKQTQALAYLKELQSGKKDIYSVKSNDHGGKGANDSGWLTWRVDDPTNLIPCPKGGAADTEVGMCWKELNDEPTVIGLVRVAPGTAAPHYHREMECYYGLSGQGLTWAQERMQPFGAGDYIEIPSKAIHYTPNTYDDQDLIYMYWFPLDGKFSTFKYQWPKDVGPGEQLMFDFVPYTNSKTVRSGNDGYGWDVIQKSKK :: not soluble
MSLTADKYTVAINENALKILGEIVFLMGASQNFAKYPVSFIINYLLPSIYLNQYRIYRTVKDNKPIGFACWAFINDQVEKELIENDINLSVEERNSGENIYVLYFIAPFGHAKQIVHDLKNNIFPNKIVKGLRLDKDGKKVLRVATYYEGHHHHHH :: soluble
MGSSGMGVDANGKPIKRQPTTNNNNKKAGNNSNNQKKGNNQNNKNNKNQNGGNRNQNRQHHQPPMMQMVPPFGPMGPGGPGGPGFMGPPNGNMNFFNGQNRRNGSGKNNGNRNGAPPSGYNGPSANNVGQGAIGNNMNGAQPFAGPEPSMEVPGFGKNSNIHELFGKMIWRKMEQINDAALVDQLQNRIMNLIHDALASQNDKQQQQQQQQHQQGFNQQRGMPFGGPGNQNGPFGNNAGFQRF :: not soluble
MSLHLSNVILHQLCKNDQDELVVKLRPASLENDASTENLVAELHRVFHSKAGKGFGSFQSDSEFQFWLQEMRKGERDFYDFSQISANRLKEELIKYPFADEGILVFAEYQSLATDYLFIGILPMNQSLKVTEGLDISATDYLDITKMDIAARIDLSSYETDKESNRYLQYIKGRVGRKVADFFLDFLQADIGLDTKQQNLVLMQAVDDFCADSKLEKQEVNEYKKQVYNYCNEQIKSGEEVQISELSGELPPSQDGTSFMDFTKEQGYELEESFPGDRSTVRKLTKYVGAGGGLNISFDSLLLGERIFYDPETDTLTIKGTLEHHHHHH :: not soluble
MTELKNDRYLRALLRQPVDVTPVWMMRRAGRYLPEYKATRAQAGDFMSLCKNAELACEVTLQPLRRYPLDAAILFSDILTIPDAMGLGLYFEAGEGPRFTAPVTCKADVEKLPIPDPEGELGYVMNAVRTIRRELKGEVPLIGFSGSPWTLATYMVEGGSSKAFTVIKKMMYADPQALHLLLDKLAKSVTLYLNAQIKAGAQSVMIFDTWGGVLTGRDYQQFSLYYMHKIVDGLLRENDGRRVPVTLFTKGGGQWLEAMAETGCDALGLDWTTDIADARRRVGHKVALQGNMDPSMLYAPPARIEDEVATILAGFGQGEGHVFNLGHGIHQDVPPEHAGAFVEAVHRLSAQYHN :: not soluble
SHMAGLEVLFASAAPAITCRQDALVCFLHWEVVTHGYCGLGVGDQPGPNDKKSELLPAGWNNNKDLYVLRYEYKDGSRKLLVKAITVESSMILNVLEYGSQQVADLTLNLDDYIDAEHLGDFHRTYKNSEELRSRIVSGIITPIHEQWEKANV :: soluble

Notebook: MKEIKVIIAGPRGRMGHEAVLLMERTEHFNLVAAVDYKHGGEKISDLPGMPALHAPIYADLHTCLDEVEADVLLDLTTPEVGKQHVTLAVERGLRSVIGTTGFTEEELTRLTENAKEKAVGTIIAPNFAIGAVLMMKFSQMAAKYFQDVEVIELHHDQKLDAPSGTAVKTVELIRQNRESKQQGHPNEVEQLAGARGANVDGIHIHSVRLPGLIAHQEVMFGGDGQMLTVRHDSFNRASFMSGVKLSIETVMNLDHLVYGLENIID , soluble on expression in E. coli read as not soluble
